subject of test: human melanocyte tyrosinase (Homo sapiens, UniProt P14679)
Construct: endogenous in cells
Sequence (P14679 19-529): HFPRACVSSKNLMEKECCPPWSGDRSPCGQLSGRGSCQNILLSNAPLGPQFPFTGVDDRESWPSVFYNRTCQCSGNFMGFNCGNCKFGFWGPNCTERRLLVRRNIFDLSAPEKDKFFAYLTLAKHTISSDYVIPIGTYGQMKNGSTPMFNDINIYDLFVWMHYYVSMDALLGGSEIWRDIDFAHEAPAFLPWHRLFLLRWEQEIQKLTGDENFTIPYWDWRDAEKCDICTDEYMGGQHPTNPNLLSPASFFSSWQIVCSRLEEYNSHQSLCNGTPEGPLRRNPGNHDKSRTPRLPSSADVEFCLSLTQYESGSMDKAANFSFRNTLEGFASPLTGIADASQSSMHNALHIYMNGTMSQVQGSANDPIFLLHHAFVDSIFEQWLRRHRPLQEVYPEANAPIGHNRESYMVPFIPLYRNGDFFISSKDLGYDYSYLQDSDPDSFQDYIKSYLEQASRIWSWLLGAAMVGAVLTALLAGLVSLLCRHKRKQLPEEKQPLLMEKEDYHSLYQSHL
assay procedure: dopa-oxidase activity of human melanocyte tyrosinase after 3-day culture of melanocytes with the compound
measurement context: human melanocytes cultured three days with compound; lysate + 5 mM L-dopa, absorbance at 475 nm (dopachrome), 25° C., 60 minutes; read-out: IC50, concentration of active product required to obtain a 50% inhibition of the production of melanin
pIC50: −log10 of the molar value.
measured attribute: pIC50

Ask: Look up and report measured pIC50 for this entry: O=C1NC(C(=O)OCc2cc(=O)c(O)co2)CS1 (stereo not shown)
Result: 3.52 to 3.70

Where these numbers come from: patent US5968487A
